Biological target: Serine/threonine-protein kinase TBK1 (Homo sapiens, UniProt Q9UHD2)
Sequence (Q9UHD2 whole entry): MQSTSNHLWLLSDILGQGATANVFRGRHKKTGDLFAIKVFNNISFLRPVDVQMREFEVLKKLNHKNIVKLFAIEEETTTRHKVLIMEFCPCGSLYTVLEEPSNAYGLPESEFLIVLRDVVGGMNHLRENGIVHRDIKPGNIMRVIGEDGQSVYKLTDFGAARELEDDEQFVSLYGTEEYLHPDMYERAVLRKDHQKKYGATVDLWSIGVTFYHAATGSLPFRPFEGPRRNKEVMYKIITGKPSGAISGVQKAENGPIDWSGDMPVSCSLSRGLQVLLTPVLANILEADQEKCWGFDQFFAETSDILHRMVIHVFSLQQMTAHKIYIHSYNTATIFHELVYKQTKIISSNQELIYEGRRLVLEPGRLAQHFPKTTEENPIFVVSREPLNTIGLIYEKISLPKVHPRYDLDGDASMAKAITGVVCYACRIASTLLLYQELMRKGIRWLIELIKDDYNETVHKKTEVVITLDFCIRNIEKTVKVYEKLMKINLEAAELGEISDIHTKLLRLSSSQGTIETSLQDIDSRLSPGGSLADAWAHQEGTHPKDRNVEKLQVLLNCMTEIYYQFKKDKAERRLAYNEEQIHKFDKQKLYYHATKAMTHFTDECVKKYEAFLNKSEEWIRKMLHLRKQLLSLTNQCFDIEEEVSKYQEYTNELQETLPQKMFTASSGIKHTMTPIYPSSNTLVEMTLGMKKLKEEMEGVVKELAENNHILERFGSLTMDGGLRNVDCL
Experiment: Inhibition of recombinant full-length TBK1 (unknown origin) using CK1tide as substrate by microfluidic mobility shift assay
Measurement Kind: IC50 (µM)

Use the examples below as a reference point.
COc1cc2ncn(-c3cc(OCc4ccccc4S(C)(=O)=O)c(C#N)s3)c2cc1OC [GSK-319347A]
0.093
COCCNC(=O)c1cc(-c2cnc3[nH]c(-c4ccc(OC)cc4)nc3c2)cs1
0.098
O=C(O)c1ccc(-c2cnc3nc(-c4ccc(OCCN5CCCCC5)cc4)[nH]c3c2)cc1
0.859

(I) COc1ccc(-c2nc3cc(-c4csc(C(=O)NCCC(C)C)c4)cnc3[nH]2)cc1
(II) COc1ccc(-c2nc3ncc(-c4cc(C(=O)O)co4)cc3[nH]2)cc1
// returns I or II , whichever has the lower IC50 Give the label under which the chosen entry appears.
I
(I: 0.143 µM, II: 1.05 µM)

====

molecular target: Serine/threonine-protein kinase TBK1 (Homo sapiens, UniProt Q9UHD2); test: Inhibition of TBK1 in HEK293 cells after 4.5 hrs by ISRE-luciferase reporter gene assay in presence of poly I:C; format: cell-based
pIC50: −log10 of the molar value.
Measurement Kind: pIC50

Consider the worked cases shown below.
COc1ccc(-c2nc3c(NCCCNC(=O)C4CCCC4)c(-c4nc(C(=O)O)cs4)cnc3[nH]2)cc1
5.66
COc1ccc(-c2nc3c(NCCCNC(=O)C4CCCC4)c(-c4nc(C(=O)NCC(C)C)cs4)cnc3[nH]2)cc1
6.89
CNC(=O)c1cc(-c2cnc3nc(-c4ccc(OC)cc4)[nH]c3c2)cs1
6.07
COc1ccc(-c2nc3cc(-c4csc(C(=O)NCC(C)C)c4)cnc3[nH]2)cc1
7.43
COc1ccc(-c2nc3cc(-c4csc(C(=O)NCC(C)(C)C)c4)cnc3[nH]2)cc1
7.52

(I) COc1ccc(-c2nc3c(NCCCNC(=O)C4CCCC4)c(C(N)=S)cnc3[nH]2)cc1
(II) COc1ccc(-c2nc3cc(-c4csc(C(C)=O)c4)cnc3[nH]2)cc1
Hello, I am sorting some records. Could you say if I or II has the smaller pIC50 value? Pick one and reply with its label.
II
(II: 5.75, I: 6.78)

====

Quick reference for IC50 among some compounds
molecular target: UniProt P24941

// solved cases for IC50 follow
COc1ccc(-c2nc3c(NCCCNC(=O)C4CCCC4)c(C(N)=S)cnc3[nH]2)cc1
> 30 µM
COCCNC(=O)c1cc(-c2cnc3[nH]c(-c4ccc(OC)cc4)nc3c2)cs1
> 30 µM

Now for the compound whose IC50 we want.
Test system UniProt P24941; read-out IC50; what value for COc1cc2ncn(-c3cc(OCc4ccccc4S(C)(=O)=O)c(C#N)s3)c2cc1OC [GSK-319347A] ?
> 30 µM

====

molecular target: Serine/threonine-protein kinase TBK1 (Homo sapiens, UniProt Q9UHD2); assay: Inhibition of TBK1 in HEK293 cells after 4.5 hrs by ISRE-luciferase reporter gene assay in presence of poly I:C; type: cell-based
pIC50: −log10 of the molar value.
Measurement Kind: pIC50

Sample answers from the record:
COc1ccc(-c2nc3cc(-c4csc(C(=O)NCC(C)(C)CO)c4)cnc3[nH]2)cc1
6.87
COc1ccc(-c2nc3cc(-c4csc(C(N)=O)c4)cnc3[nH]2)cc1
6.57
COc1ccc(-c2nc3cc(-c4csc(C(=O)NCCC(C)C)c4)cnc3[nH]2)cc1
7.11
COc1cc2ncn(-c3cc(OCc4ccccc4S(C)(=O)=O)c(C#N)s3)c2cc1OC [GSK-319347A]
7.14

(A) COCCNC(=O)c1cc(-c2cnc3[nH]c(-c4ccc(OC)cc4)nc3c2)cs1
(B) CCC(C)CNC(=O)c1cc(-c2cnc3[nH]c(-c4ccc(OC)cc4)nc3c2)cs1 (stereo unspecified)
(C) COc1ccc(-c2nc3c(NCCCNC(=O)C4CCCC4)c(-c4nc(C(N)=O)cs4)cnc3[nH]2)cc1
Please list the entries, largest pIC50 first. Provide your answer as the labels ordered per the instruction.
C, B, A

====

The following compounds are listed with their measured pIC50 values.
target: Serine/threonine-protein kinase TBK1 (Homo sapiens, UniProt Q9UHD2); experiment: Inhibition of TBK1 in HEK293 cells after 4.5 hrs by ISRE-luciferase reporter gene assay in presence of poly I:C; assay type: cell-based
pIC50: −log10 of the molar value.

Examples with their reported pIC50 follow.
COc1ccc(-c2nc3c(OCCCNC(=O)C4CCCC4)c(-c4csc(C(=O)O)c4)cnc3[nH]2)cc1
< 5.52
COc1ccc(-c2nc3ncc(-c4ccc(C(=O)O)s4)cc3[nH]2)cc1
< 4.52
COc1ccc(-c2nc3cc(-c4cc(C(=O)O)cs4)cnc3[nH]2)cc1
< 4.52

Next up:
Tell me the measured pIC50 of COc1ccc(-c2nc3ncc(-c4cc(C(=O)O)co4)cc3[nH]2)cc1 , please.
< 4.52
